System: Pseudomonas aeruginosa IFO-3445
run.description: MIC, agar plate dilution method
Format: cell-based
recorded.conditions: IFO3445, 18 h, Table 2, same microorganisms as Table 1
# MIC per entry
quantity.measured: MIC (µg/mL)

[[record]]
molecule = "O=C(O)c1c2n(c3c(F)c(N4CCNCC4)c(F)cc3c1=O)CS2"
quantity_unit = "µg/mL"
result = 0.2

[[record]]
molecule = "O=C(O)c1c2n(c3c(F)c(N4CCNCC4)c(F)cc3c1=O)C(c1ccccc1)S2 (stereo not drawn)"
quantity_unit = "µg/mL"
result = 0.39

[[record]]
molecule = "CN1CCN(c2c(F)cc3c(=O)c(C(=O)O)c4n(c3c2F)CS4)CC1"
quantity_unit = "µg/mL"
result = 0.39

[[record]]
molecule = "CCOC(=O)c1c2n(c3c(F)c(N4CCNCC4)c(F)cc3c1=O)C(c1ccc(F)cc1)S2 (stereo not drawn)"
quantity_unit = "µg/mL"
result = 0.39

[[record]]
molecule = "CC1Sc2c(C(=O)O)c(=O)c3cc(F)c(N4CCN(C)CC4)c(F)c3n21 (stereo not drawn)"
quantity_unit = "µg/mL"
result = 0.2

[[record]]
molecule = "NC1CCN(c2c(F)cc3c(=O)c(C(=O)O)c4n(c3c2F)CS4)C1 (stereo not drawn)"
quantity_unit = "µg/mL"
result = 0.0125


###

Tested on: P. aeruginosa E-2
run.description: Therapeutic effect on infections in mice, similar test (Table 4)
Type: in vivo, ddY strain male mice
recorded.conditions: P. aeruginosa E-2, 1.25×10^5 cfu/mouse
quantity.measured: ED50 (mg/mouse)

[[record]]
molecule = "CC1Sc2c(C(=O)O)c(=O)c3cc(F)c(N4CCN(C)CC4)c(F)c3n21 (stereo not shown) [Example 4]"
quantity_unit = "mg/mouse"
result = 0.177

[[record]]
molecule = "CC1COc2c(N3CCN(C)CC3)c(F)cc3c(=O)c(C(=O)O)cn1c23 (racemic) [Ofloxacin, ofloxacin, reference compound]"
quantity_unit = "mg/mouse"
result = 0.521

[[record]]
molecule = "CN1CCN(c2c(F)cc3c(=O)c(C(=O)O)c4n(c3c2F)CS4)CC1 [Example 7]"
quantity_unit = "mg/mouse"
result = 0.263

[[record]]
molecule = "CC1Sc2c(C(=O)O)c(=O)c3cc(F)c(N4CCNCC4)c(F)c3n21 (stereo not shown) [Example 2]"
quantity_unit = "mg/mouse"
result = 0.156


###

# MIC per entry
Test system: Shigella flexneri 2a EW-10
run.description: MIC, agar plate dilution method
Type: cell-based
recorded.conditions: 2AEW10, 18 h, Table 2, same microorganisms as Table 1
quantity.measured: MIC (µg/mL)

[[record]]
compound = "O=C(O)c1c2n(c3c(F)c(N4CCNCC4)c(F)cc3c1=O)CS2"
tgt = "Shigella flexneri 2a EW-10"
quantity_measured = "MIC"
quantity_unit = "µg/mL"
relation_operator = "="
result = 0.0125

[[record]]
compound = "NC1CCN(c2c(F)cc3c(=O)c(C(=O)O)c4n(c3c2F)CS4)C1 (stereo not drawn)"
tgt = "Shigella flexneri 2a EW-10"
quantity_measured = "MIC"
quantity_unit = "µg/mL"
relation_operator = "≤"
result = 0.00625

[[record]]
compound = "CCOC(=O)c1c2n(c3c(F)c(N4CCNCC4)c(F)cc3c1=O)C(c1ccc(F)cc1)S2 (stereo not drawn)"
tgt = "Shigella flexneri 2a EW-10"
quantity_measured = "MIC"
quantity_unit = "µg/mL"
relation_operator = "="
result = 0.05

[[record]]
compound = "CN1CCN(c2c(F)cc3c(=O)c(C(=O)O)c4n(c3c2F)CS4)CC1"
tgt = "Shigella flexneri 2a EW-10"
quantity_measured = "MIC"
quantity_unit = "µg/mL"
relation_operator = "="
result = 0.025

[[record]]
compound = "O=C(O)c1c2n(c3c(F)c(N4CCNCC4)c(F)cc3c1=O)C(c1ccccc1)S2 (stereo not drawn)"
tgt = "Shigella flexneri 2a EW-10"
quantity_measured = "MIC"
quantity_unit = "µg/mL"
relation_operator = "="
result = 0.05

[[record]]
compound = "CC1Sc2c(C(=O)O)c(=O)c3cc(F)c(N4CCN(C)CC4)c(F)c3n21 (stereo not drawn)"
tgt = "Shigella flexneri 2a EW-10"
quantity_measured = "MIC"
quantity_unit = "µg/mL"
relation_operator = "="
result = 0.0125

